target: human Y4 receptor (Homo sapiens); construct: expressed in transfected cells; test: NPY4 cAMP HTRF Agonist Assay (inhibitory cAMP assay, Gi activation by Y4 agonism); assay type: cell-based; conditions: TABLE 2, R2 is Phenyl-CN; read-out: hY4 CAMP EC50
Sequence (P50391 whole entry): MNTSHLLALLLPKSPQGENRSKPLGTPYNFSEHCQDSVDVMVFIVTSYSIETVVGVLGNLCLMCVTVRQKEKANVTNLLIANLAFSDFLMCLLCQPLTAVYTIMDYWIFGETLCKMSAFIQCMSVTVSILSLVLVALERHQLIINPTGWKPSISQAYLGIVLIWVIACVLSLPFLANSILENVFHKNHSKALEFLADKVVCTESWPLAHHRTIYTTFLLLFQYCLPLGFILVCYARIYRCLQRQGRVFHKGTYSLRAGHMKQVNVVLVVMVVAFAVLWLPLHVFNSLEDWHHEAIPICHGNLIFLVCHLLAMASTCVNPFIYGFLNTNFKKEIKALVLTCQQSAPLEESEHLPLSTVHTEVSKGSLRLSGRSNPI
Readout type: EC50 (nM)

CC(=O)c1ccccc1-c1ccnc(N[C@@H]2CCCC[C@H]2N[C@H]2CCCN(c3ccc(C#N)cc3)C2)c1 [Example 253]; 70

(A) N#Cc1ccc(N2C[C@@H]3C[C@H](N[C@@H]4CCCC[C@H]4Nc4cc(Br)ccn4)[C@H]2C3)cc1 [Example 233]
(B) N#Cc1ccc(N2CCC[C@H](N[C@@H]3CCCC[C@H]3Nc3cc(-c4cccc5c4CC(=O)N5)ccn3)C2)cc1 [Example 212]
(C) N#Cc1ccc(N2CCC[C@H](N[C@@H]3CCCC[C@H]3NC3=NOC(c4ccccc4)C3)C2)cc1 (some centres unmarked) [Example 230]
(D) N#Cc1ccc(N2CCC[C@H](N[C@@H]3CCCC[C@H]3Nc3ncc(-c4cccc(C(N)=O)c4)o3)C2)cc1 [Example 265]
Rank the items in ascending order with respect to EC50. Rank the items, then write their labels in that order.
D, B, A, C

(A) N#Cc1ccc(N2CCC[C@H](N[C@@H]3CCCC[C@H]3Nc3cc(-c4ccc(CO)cc4)ccn3)C2)cc1 [Example 218]
(B) N#Cc1ccc(N2CCC[C@H](N[C@@H]3CCCC[C@H]3Nc3cc(-c4cccc(Cl)c4)ccn3)C2)cc1 [Example 250]
Lower value of EC50 belongs to which: A or B ? Kindly state the label of the option you pick.
A

(I) N#Cc1ccc(N2C[C@@H]3C[C@H](N[C@@H]4CCCC[C@H]4Nc4ncc(-c5ccc(O)cc5)o4)[C@H]2C3)cc1 [Example 225]
(II) CS(=O)(=O)c1cccc(-c2ccnc(N[C@@H]3CCCC[C@H]3N[C@H]3CCCN(c4ccc(C#N)cc4)C3)c2)c1 [Example 254]
(III) COC(=O)c1cccn1-c1ccnc(N[C@@H]2CCCC[C@H]2N[C@H]2CCCN(c3ccc(C#N)cc3)C2)c1 [Example 204]
Rank the items in ascending order with respect to EC50. Rank the items, then write their labels in that order.
I, III, II
(I: 54 nM, III: 147 nM, II: 381 nM)

(I) N#Cc1ccc(N2CCC[C@H](N[C@@H]3CCCC[C@H]3Nc3cc(-n4ccc(C(F)(F)F)n4)ccn3)C2)cc1 [Example 206]
(II) N#Cc1ccc(N2CCC[C@H](N[C@@H]3CCCC[C@H]3Nc3cn(-c4ccc(OC(F)(F)F)cc4)nn3)C2)cc1 [Example 202]
(III) N#Cc1ccc(N2CCC[C@H](N[C@@H]3CCCC[C@H]3Nc3cc(-c4cccc5c4NC(=O)C5)ccn3)C2)cc1 [Example 213]
(IV) N#Cc1ccc(N2CCC[C@H](N[C@@H]3CCCC[C@H]3Nc3cc(-c4ccc(N)cc4)ccn3)C2)cc1 [Example 239]
Rank the items in ascending order with respect to EC50. Rank the items, then write their labels in that order.
III, IV, I, II

* * *

target: human Y4 receptor (Homo sapiens); construct: expressed in transfected cells; test: NPY4 cAMP HTRF Agonist Assay (inhibitory cAMP assay, Gi activation by Y4 agonism); type: cell-based; details: human Y4 receptor, cAMP; read-out: hY4 CAMP EC50
Readout type: EC50 (nM)

(P) Cc1nnc(-c2ccc(N3CCCC(N[C@@H]4CCCC[C@H]4Nc4cc(-c5ccc(O)cc5)ccn4)C3)cc2)o1 (stereo partly drawn) [Example 370]
(Q) FC(F)(F)Oc1ccc(-c2cnc(N[C@@H]3CCCC[C@H]3N[C@H]3CCCN(c4cnc(C(F)(F)F)nc4)C3)o2)cc1 [Example 401]
(R) CC(C)(C)COC(=O)Nc1cccc(-c2cnc(N[C@@H]3CCCC[C@H]3N[C@H]3CCCN(c4cnc(C(F)(F)F)nc4)C3)o2)c1 [Example 420]
Sort entries by EC50 from minimum to maximum value. Rank the items, then write their labels in that order.
P, R, Q
(P: 3 nM, R: 212 nM, Q: 1480 nM)
